B1: ZNF511 (parent)
chain: EPLPVERDPAAGAAPFRFVARPVR

Variants of: B1
Test: protein stability index of a GFP-peptide fusion (GPS, HEK-293T) (PSI 1-6); higher = more stable;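 also: lentivirally expressed fusions sorted by FACS into six bins by GFP to DsRed ratio, PSI derived from sequencing read proportions per bin multiplied by bin number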
Measurement context: c terminus: a fixed tail appended
Please go through the items and note down their protein stability index.
Numbers only.

Okay, here is my list. What is protein stability index for each of these?
1. F18G
2. G12F
3. E1F

Completion:
1: 5.14; 2: 2.01; 3: 2.85

Record protein stability index for all entries; do not skip any.
1. F16A
2. A10W
3. P4F
4. D8N
5. F18S

Completion:
4.67
1.43
2.52
3.17
5.18

# map each variant to its protein stability index
1. F16V
2. A13Y
3. E1L

Completion:
1: 4.62; 2: 2.02; 3: 2.69
